Experiment: UKN2_HCS_IMR90_cell_viability: Viability Assessment in the University of Konstanz (UKN) Leist Lab Neural Crest Cell Migration Assay in human induced IMR90 Pluripotent Stem Cells (UKN2) (AID 2284233);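 note: viability of neural crest cells differentiated from IMR90 iPSC measured by calcein-AM fluorescence imaging; cells exposed to compound for 24 h after a 24 h migration phase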
Activity calls are given as the source filed them. Rule for the calls: active = hit-call score of the fitted dose curve at least 0.9, where 1 is the maximum; inactive = score below 0.9.
experimental readout: AC50

Please review the entries below; each comes with its answer.
compound="CC(C)(C)NCC(O)c1cc(O)cc(O)c1 (stereo not given)" result=inactive
compound="CNCCC(Oc1ccc(C(F)(F)F)cc1)c1ccccc1 (stereo not given)" result="24.8 µM (active)"
compound=C[C@@H]1C[C@H]2[C@@H]3CCC4=CC(=O)C=C[C@]4(C)[C@@]3(F)[C@@H](O)C[C@]2(C)[C@@]1(O)C(=O)CO result=inactive
compound=Oc1cccc2ccccc12 result=inactive

Which value of AC50 has been reported for Cc1c(O)cccc1C(=O)N[C@@H](CSc1ccccc1)[C@H](O)CN1C[C@H]2CCCC[C@H]2C[C@H]1C(=O)NC(C)(C)C in the records?
inactive

---

Target: Cellular tumor antigen p53 (Homo sapiens)
Assay: TOX21_p53_BLA_p4_ratio: Tox21 HCT-116 p53 Agonism Beta-lactamase Assay, Ratio, Phase 4 (AID 2283601)
Inconclusive results are not listed. Activity calls are given as the source filed them. The calls were made as follows: active = hit-call score of the fitted dose curve at least 0.9, where 1 is the maximum; inconclusive = response in the unintended direction; inactive = score below 0.9.
Your response should consist of one outcome taken from Y = active, N = inactive

Worked examples follow.
molecule=Cc1cn([C@H]2C[C@H](O)[C@@H](CO)O2)c(=O)[nH]c1=O class_label=N
molecule=CO class_label=N
molecule=CCN(CC)C(C)=O class_label=N

Entry OCCN1CCN(CCCN2c3ccccc3Sc3ccc(C(F)(F)F)cc32)CC1 : call = ?
Y

Entry CC1=NN(c2cc(Cl)c(S(=O)(=O)O)cc2Cl)C(=O)C1N=Nc1ccc(S(=O)(=O)O)cc1 (stereo unspecified) : call = ?
N

Entry CCCCCCCCCCCCCCCCCCOP(=O)([O-])OC1CC[N+](C)(C)CC1 : call = ?
N

---

Experiment: CCTE_Shafer_MEA_dev_per_burst_spike_percent: CCTE's Neural Network Formation Assay for Percent of Spikes in a Burst, Shafer Lab (AID 2284032)
Activity calls are given as the source filed them. The calls were made as follows: active = hit-call score of the fitted dose curve at least 0.9, where 1 is the maximum; inactive = score below 0.9.
Your response should consist of one outcome taken from active, inactive

compound=Cc1c(O)cccc1C(=O)N[C@@H](CSc1ccccc1)[C@H](O)CN1C[C@H]2CCCC[C@H]2C[C@H]1C(=O)NC(C)(C)C class_label=active

Entry CN(C)CCC(c1ccc(Cl)cc1)c1ccccn1 (centres undefined) : call = ?
inactive

Entry CC1(C)S[C@@H]2[C@H](NC(=O)[C@H](N)c3ccccc3)C(=O)N2[C@H]1C(=O)O : call = ?
inactive

Entry [Cl-].[Cl-].[NH2-].[NH2-].[Pt+4] : call = ?
inactive

Entry C[C@H](CS)C(=O)N1CCC[C@H]1C(=O)O : call = ?
inactive

Entry c1cc2ccc3ccc4ccc5cccc6c(c1)c2c3c4c56 : call = ?
inactive

Entry C[C@@H]1C[C@H]2[C@@H]3CCC4=CC(=O)C=C[C@]4(C)[C@@]3(F)[C@@H](O)C[C@]2(C)[C@@]1(O)C(=O)CO : call = ?
inactive

Entry c1ccc2cc3c4ccccc4c4ccccc4c3cc2c1 : call = ?
active

Entry COc1ccc2cc3[n+](cc2c1OC)CCc1cc2c(cc1-3)OCO2 : call = ?
active

---

Test: ATG_ISRE_CIS: Attagene CIS-FACTORIAL HepG2 Assay for human Interferon Regulatory Factor 1 (IRF1) binding to an Interferon-Stimulated Response Element (ISRE) (AID 2282948)
Settings: HepG2 ISRE cis-reporter (Attagene), mRNA transcription readout; actives raise or lower the signal
Description: ATG_CIS is a cell-based, multiplexed-readout assay that uses HepG2, a human liver cell line, with measurements taken at 24 hours after chemical dosing in a 24-well plate.ATG_ISRE_CIS is one of 52 assay component(s) measured or calculated from the ATG_CIS assay. […] This assay endpoint, ATG_ISRE_CIS, was analyzed with bidirectional fitting relative to DMSO as the negative control and baseline of activity. […]
The source made the active and inactive calls. The calls were made as follows: active = hit-call score of the fitted dose curve at least 0.9, where 1 is the maximum; inactive = score below 0.9.
experimental readout: AC50

Please review the entries below; each comes with its answer.
molecule=CCCCCCCC#N experimental_readout=AC50 result=inactive
molecule=Clc1ccccn1 experimental_readout=AC50 result=inactive
molecule=Brc1ccc(Oc2ccc(Br)cc2)cc1 experimental_readout=AC50 result=inactive
molecule=CC/C=C\CC1=C(C)CCC1=O experimental_readout=AC50 result=inactive
molecule=N#CCN(CC#N)CCN(CC#N)CC#N experimental_readout=AC50 result=inactive

Which value of AC50 has been reported for Oc1cccc2ccccc12 in the records?
inactive

Which value of AC50 has been reported for C[Si](C)(C)O[Si](C)(C)O[Si](C)(C)C in the records?
inactive

Which value of AC50 has been reported for CC(=O)CCc1ccccc1 in the records?
inactive

Which value of AC50 has been reported for CCCC[N+]1(C)CCCC1 in the records?
inactive

Which value of AC50 has been reported for F[B-](F)(F)F in the records?
inactive

---

Assay: TOX21_p53_BLA_p2_viability: Viability Assessment in the Tox21 HCT-116 p53 Agonism Beta-lactamase Assay, Phase 2 (AID 2283591);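 note: compound exposure lasted 16 h at 37 °C; actives lower the ATP signal meaning cytotoxicity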
Records with an inconclusive call do not appear. Activity calls are given as the source filed them. Rule for the calls: active = hit-call score of the fitted dose curve at least 0.9, where 1 is the maximum; inconclusive = response in the unintended direction; inactive = score below 0.9.
Your response should consist of one outcome taken from YES (active), NO (inactive)

Worked examples follow.
compound=CC(=O)N/N=C/c1ccc([N+](=O)[O-])o1 class_label=NO
compound="Oc1ccc(C2(c3ccc(O)cc3)CC3CC2C2CCCC32)cc1 (centres undefined)" class_label=YES
compound=O=C(NOC[C@H](O)CO)c1ccc(F)c(F)c1Nc1ccc(I)cc1F class_label=NO
compound=NC(=O)c1ccc([N+](=O)[O-])cc1Cl class_label=NO

Then this compound:
Entry CC(C)NCC1CCc2cc(CO)c([N+](=O)[O-])cc2N1 (centres undefined) : call = ?
NO

---

Experiment: ATG_NRF2_ARE_CIS: Attagene CIS-FACTORIAL HepG2 Assay for human Nuclear Factor Erythroid 2 Related Factor 2 (NFR2) response to Antioxidant Response Elements (ARE) (AID 2282992)
Conditions: HepG2 Attagene ARE/NRF2 reporter, transcription factor activity; actives raise or lower the signal
Active and inactive are the calls of the source. The calls were made as follows: active = hit-call score of the fitted dose curve at least 0.9, where 1 is the maximum; inactive = score below 0.9.
Your response should consist of one outcome taken from active, inactive

Worked examples follow.
compound=CC(C)CC(=O)CC(C)C class_label=inactive
compound="CCC(C)NC(N)=O (stereo not given)" class_label=inactive
compound=CCCOCCC class_label=inactive
compound="CCCCCCC(O)CCCCCCCCCCC(=O)OC (stereo not given)" class_label=inactive
compound=CC[N+](CC)(CC(=O)Nc1c(C)cccc1C)Cc1ccccc1 class_label=inactive
compound=OCCN(CCO)c1cccc(Cl)c1 class_label=active
compound="CC1=NN(c2cc(Cl)c(S(=O)(=O)O)cc2Cl)C(=O)C1N=Nc1ccc(S(=O)(=O)O)cc1 (stereo not given)" class_label=inactive
compound=Cc1cc(O)cc(C)c1Cl class_label=active

Entry O=S(=O)(O)c1cccc2ccccc12 : call = ?
inactive

Entry C=C1CC[C@H]2C[C@@H]1C2(C)C : call = ?
active

---

Experiment: TOX21_p53_BLA_p4_viability: Viability Assessment in the Tox21 HCT-116 p53 Agonism Beta-lactamase Assay, Phase 4 (AID 2283597);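 note: hits lower the luminescence signal meaning cytotoxicity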
Inconclusive results are not listed. Active and inactive are the calls of the source. Rule for the calls: active = hit-call score of the fitted dose curve at least 0.9, where 1 is the maximum; inconclusive = response in the unintended direction; inactive = score below 0.9.
Your response should consist of one outcome taken from active, inactive

molecule=CC(C)c1ccc2sc3ccccc3c(=O)c2c1 class_label=active
molecule=c1cc2ccc3ccc4ccc5cccc6c(c1)c2c3c4c56 class_label=inactive
molecule=CCOC(=O)Oc1c(OC)cc(C(=O)O[C@@H]2C[C@@H]3CN4CCc5c([nH]c6cc(OC)ccc56)[C@H]4C[C@@H]3[C@H](C(=O)OC)[C@H]2OC)cc1OC class_label=inactive
molecule=CC(C)=C1CC[C@@H](C)CC1=O class_label=inactive
molecule=CCCCCC[C@@H](CCC)C(=O)O class_label=inactive

Entry CC1(C)S[C@@H]2[C@H](NC(=O)C(C(=O)O)c3ccccc3)C(=O)N2[C@H]1C(=O)O (stereo partly drawn) : call = ?
inactive

---

Target: X-box-binding protein 1 (Homo sapiens)
Experiment: ATG_Xbp1_CIS: Attagene CIS-FACTORIAL HepG2 Assay for human X-box Binding Protein 1 (XBP1) (AID 2282972)
Conditions: HepG2 XBP1 cis-element reporter, Attagene multiplex; actives raise or lower the signal
Activity calls are given as the source filed them. Rule for the calls: active = hit-call score of the fitted dose curve at least 0.9, where 1 is the maximum; inactive = score below 0.9.
experimental readout: outcome

Please review the entries below; each comes with its answer.
molecule="CCC(C)C1N=C(C)C(C)S1 (stereo not drawn)" experimental_readout=outcome result=inactive
molecule="CCCCCCC(O)CCCCCCCCCCC(=O)OC (stereo not drawn)" experimental_readout=outcome result=inactive
molecule=COc1c2occc2cc2ccc(=O)oc12 experimental_readout=outcome result=inactive
molecule=NC(=O)c1ccc([N+](=O)[O-])cc1Cl experimental_readout=outcome result=inactive
molecule=COc1cccc(OC)c1C(=O)O experimental_readout=outcome result=inactive
molecule=Brc1ccc(Oc2ccc(Br)cc2)cc1 experimental_readout=outcome result=inactive
molecule=CC(O)(P(=O)(O)O)P(=O)(O)O experimental_readout=outcome result=inactive
molecule=CCCCCCCCCCCCCCCCCC[N+](C)(C)C experimental_readout=outcome result=inactive
molecule=C=C1CC[C@H]2C[C@@H]1C2(C)C experimental_readout=outcome result=inactive
molecule=NC(N)=Nc1nc(CSCCC(N)=NS(N)(=O)=O)cs1 experimental_readout=outcome result=inactive

Record COC(OC)C(C)c1ccccc1 (stereo not drawn) : what is its outcome with X-box-binding protein 1 (Homo sapiens)?
inactive

Record CCCN[C@H]1CCc2nc(N)sc2C1 : what is its outcome with X-box-binding protein 1 (Homo sapiens)?
inactive

Record C1=CCC=C1 : what is its outcome with X-box-binding protein 1 (Homo sapiens)?
inactive

Record COc1ccccc1OCC(O)CO (stereo not drawn) : what is its outcome with X-box-binding protein 1 (Homo sapiens)?
inactive

Record OCCOCCOCCOCCOCCO : what is its outcome with X-box-binding protein 1 (Homo sapiens)?
inactive

Record CC(C)CC(=O)CC(C)C : what is its outcome with X-box-binding protein 1 (Homo sapiens)?
inactive

Record O=C1CCCCCCCCCCCCCC1 : what is its outcome with X-box-binding protein 1 (Homo sapiens)?
inactive

Record CC(C)n1c(/C=C/[C@@H](O)C[C@@H](O)CC(=O)O)c(-c2ccc(F)cc2)c2ccccc21 : what is its outcome with X-box-binding protein 1 (Homo sapiens)?
inactive

Record CCCCCCCCCCC1CO1 (stereo not drawn) : what is its outcome with X-box-binding protein 1 (Homo sapiens)?
inactive

Record CC/C=C\CC/C=C/C(OCC)OCC : what is its outcome with X-box-binding protein 1 (Homo sapiens)?
inactive

Record Cc1ccnc(N)c1 : what is its outcome with X-box-binding protein 1 (Homo sapiens)?
inactive

Record CCCCCCOC(=O)CCCCCCCC(=O)OCCCCCC : what is its outcome with X-box-binding protein 1 (Homo sapiens)?
inactive

Record O=C(c1ccccc1)c1ccccc1O : what is its outcome with X-box-binding protein 1 (Homo sapiens)?
inactive

Record CO[Si](CCCNCCN)(OC)OC : what is its outcome with X-box-binding protein 1 (Homo sapiens)?
inactive

Record CCO[Si](OCC)(OCC)c1ccccc1 : what is its outcome with X-box-binding protein 1 (Homo sapiens)?
inactive

Record CCC(C)NC(N)=O (stereo not drawn) : what is its outcome with X-box-binding protein 1 (Homo sapiens)?
inactive

Record CC/C=C\CCCCCO : what is its outcome with X-box-binding protein 1 (Homo sapiens)?
inactive

Record COC(=O)CCSCCC(=O)OC : what is its outcome with X-box-binding protein 1 (Homo sapiens)?
inactive
